Every entry's value here was drawn from ChEMBL document CHEMBL1201862.

system: HCC 2998; experiment: NCI tumour cell line growth inhibition, 48 h
Active and inactive are the calls of the source. Rule as the data show it: active = GI50 up to about 1.1 µM and inactive = higher.
Classes used: active, inactive

> print(dat)
                                    compound  classification
 1  N#Cc1c(N2CCOCC2)[nH]c(=O)c(C(c2c(Cl)cccc2Cl)c2c(O)c(C#N)c(N3CCOCC3)[nH]c2=O)c1O        inactive
 2  COc1cccc(-c2nc(N)c(C#N)c3c2CCS(=O)(=O)c2ccc(C)cc2-3)c1        inactive
 3      CC1(C)C2=CCCC(=O)[C@@]2(C)CC[C@@H]1O        inactive
 4        COC1=CC(=O)c2c(ccc3ncnc(N)c23)C1=O        inactive
 5  CC(=NNC(=S)Nc1cccc(C)c1)c1cccc(C(C)=NNC(=S)Nc2cccc(C)c2)n1        inactive
 6       Cn1c2ccccc2n2c3ccccc3c(=S)c(C#N)c12        inactive
 7  CCOC(=O)C1COc2cc(-c3cc(=O)c4ccccc4o3)ccc2O1 (stereo not drawn)        inactive
 8  C/C(Cl)=N/OC(=O)Nc1ccc(F)c([N+](=O)[O-])c1        inactive
 9  Brc1ccc2c(c1)C1C(CO2)C(c2ccccc2)=NN1c1ccccc1 (stereo not drawn)        inactive
10           CN(C)CCN(C)CCC(=O)/C=C/c1ccccc1        inactive
11                Cc1cc2c(C)cc(=O)[nH]c2cc1N        inactive
12  C(=N\CCCN1CCN(CCC/N=C/c2cccc3ccccc23)CC1)/c1cccc2ccccc12        inactive
13  C[C@]12CC[C@H](OC3CCCCO3)CC1=CC[C@@H]1C2CC[C@]2(C)/C(=N/O)CCC12 (stereo partly drawn)        inactive
14   CC(Oc1ccccc1)C(=O)NN (stereo not drawn)        inactive
15                         CCOC(=O)c1nnsc1NN        inactive
16  CC1(C)CC[C@]2(C(=O)O)CC[C@]3(C)C(=CC[C@@H]4[C@@]5(C)C[C@H](O)[C@H](O)[C@@](C)(C(=O)O)[C@@H]5CC[C@]43C)[C@@H]2C1        inactive
17  CSC(C1c2ccccc2N(C)C2=NC(=O)N(C)C(=O)C21Cl)S(=O)(=O)c1ccc(C)cc1 (stereo not drawn)        inactive
18  COC1=CC2(CC(OC)=C1OC)OC21COc2ccccc2C1=O (stereo not drawn)        inactive
19  Cc1ccc(C)c2c1C1CCCCC3(OCCCO3)C21O (stereo not drawn)        inactive
20    CCOC(=O)c1nnc2c(C(=O)OCC)c3ccccc3n2c1N        inactive
21                   COc1ccc(OC)c2c(C)ccnc12        inactive
22                      O=P1(c2ccccc2)CCCCC1        inactive
23               CC(=O)Nn1c(=S)[nH]c2ccccc21        inactive
24  COc1cccc2c1C(=O)c1ccc3cc(CCl)cc(O)c3c1C2=O          active
25  Cc1nc(C(N)=S)sc1C(=O)C/C(=N/N)C(=O)Nc1ccc(Cl)cc1        inactive
26  Cc1c(C(=O)CC(=O)C(=O)Nc2cccc(C(F)(F)F)c2)[n+]([O-])c2ccccc2[n+]1[O-]        inactive
27  CC(=O)N(C)c1cc(NCc2ccccc2)ccc1OCc1ccccc1        inactive
28  O=C1C=C(c2ccccc2)OC1C1Sc2ccccc2NC1=O (stereo not drawn)        inactive
29  Nc1nc2c(c(=O)[nH]1)C(c1ccc(Cl)cc1)C=C(c1ccccc1)N2 (stereo not drawn)        inactive
30                     CCCCCCCCCCCc1nnc(N)o1        inactive
31         COc1ccc(CNc2cnc3ccc(N)cc3n2)cc1OC        inactive
32             O=C(/C(=C\I)c1ccccc1)c1ccccc1        inactive
33  CS(=O)(=O)OCCN(CCOS(C)(=O)=O)c1ccc(C=O)cc1        inactive
34             Cc1nc2nn(Cc3ccccc3)cc2c(=O)o1        inactive
35  CCCCc1c2c(nc3c1CCCC3O)/C(=C/c1ccccc1)CCC2 (stereo not drawn)        inactive
36  O=C1c2cccc3cc([N+](=O)[O-])cc(c23)C(=O)N1CCCN1CCN(CCCNc2ccc3ncn4c5ccccc5c(=O)c2c34)CC1          active
37  C[C@]12CC[C@H]3[C@@H](CCC4=CC(=O)CC[C@@]43C)[C@@H]1CC[C@@H]2OC(=O)c1cccc2c(=O)c3ccccc3[nH]c12        inactive
38  COc1cc(C2c3cc4c(cc3[C@@H](Nc3ccc(N(C)C)cc3)[C@H]3COC(=O)C23)OCO4)cc(OC)c1O (stereo partly drawn)        inactive
39  CN(C)c1ccc(/C=C/c2ccc(/C=C/c3ccc(N(C)C)cc3)cc2)cc1        inactive
40  O=C(/C=C/c1ccc2ccccc2c1)NCc1ccc(C(=O)NCCc2ccccc2)cc1        inactive
41  CCCCN1C(=O)NC(Cc2ccccc2)C1=O (stereo not drawn)        inactive
42  C=C(C)C#CC(O)(C(=O)OC1CCN(C)CC1)C(C)C (stereo not drawn)        inactive
43  O=C1c2ccccc2C(=O)C2C1C1C(=O)c3ccccc3C(=O)C21 (stereo not drawn)        inactive
